Here the recorded Kd is given for each entry.
Target: hPolεCD (DNA polymerase ε catalytic domain, exo-) (Homo sapiens, UniProt Q07864 27-1172, D275N;E277Q;del185-209)
Sequence (Q07864 other isoform, or with tags, fused parts or gaps D275N;E277Q;del185-209): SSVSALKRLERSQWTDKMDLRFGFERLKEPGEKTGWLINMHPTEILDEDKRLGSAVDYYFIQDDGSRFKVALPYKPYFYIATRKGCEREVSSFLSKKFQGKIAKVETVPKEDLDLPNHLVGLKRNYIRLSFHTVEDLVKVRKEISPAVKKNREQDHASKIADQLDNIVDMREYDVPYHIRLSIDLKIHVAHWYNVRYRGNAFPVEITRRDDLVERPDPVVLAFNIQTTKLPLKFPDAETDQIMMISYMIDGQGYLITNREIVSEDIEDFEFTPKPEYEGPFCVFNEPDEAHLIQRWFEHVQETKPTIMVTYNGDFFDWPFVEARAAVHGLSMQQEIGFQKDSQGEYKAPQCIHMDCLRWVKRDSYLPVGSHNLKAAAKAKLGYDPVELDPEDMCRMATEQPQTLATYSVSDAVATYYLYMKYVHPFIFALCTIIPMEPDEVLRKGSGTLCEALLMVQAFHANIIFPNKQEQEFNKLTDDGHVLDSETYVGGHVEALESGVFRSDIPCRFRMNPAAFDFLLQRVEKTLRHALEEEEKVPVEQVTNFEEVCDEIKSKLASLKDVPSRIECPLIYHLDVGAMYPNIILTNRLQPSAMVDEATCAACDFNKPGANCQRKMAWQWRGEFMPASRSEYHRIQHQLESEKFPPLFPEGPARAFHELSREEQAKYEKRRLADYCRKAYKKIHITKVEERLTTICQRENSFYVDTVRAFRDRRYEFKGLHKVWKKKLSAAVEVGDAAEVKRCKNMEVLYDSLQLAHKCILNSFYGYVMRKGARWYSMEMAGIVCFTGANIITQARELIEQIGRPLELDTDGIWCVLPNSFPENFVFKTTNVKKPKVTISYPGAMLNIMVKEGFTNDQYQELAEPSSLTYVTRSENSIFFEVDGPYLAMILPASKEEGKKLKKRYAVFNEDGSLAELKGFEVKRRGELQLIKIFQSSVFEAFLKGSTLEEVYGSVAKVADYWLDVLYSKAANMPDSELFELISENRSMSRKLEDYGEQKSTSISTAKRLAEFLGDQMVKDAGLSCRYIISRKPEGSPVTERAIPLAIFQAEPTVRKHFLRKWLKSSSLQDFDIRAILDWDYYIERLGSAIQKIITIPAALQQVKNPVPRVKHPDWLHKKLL
Test: BLI; 100 mM NaCl, no dTTP/Mg2+; BLI (Octet K2): 30 mM Tris-Hepes pH 7.8, 100-150 mM NaCl, 2 mM TCEP, 0.002% Tween 20, 23 °C; EMSA: 20 mM Tris-Hepes pH 7.8, 100 mM NaCl, 2% glycerol, 2 mM TCEP, 0.2 mg/mL BSA, room temperature
Conditions: protein: recombinant; tags: none in final protein (N-terminal His6-Sumo cleaved); label: 5' BiotinTEG on template; template 5' overhang 9 nt and 3' overhang 3 nt
Respond with the bare value in µM.

Observe how each entry below is paired with its result.
Binder: D11 template:primer (dsDNA, primer 3'-terminal 2',3'-dideoxy-C) DNA 1: AATACATAAGCGCTCCAGGCAAT DNA 2: GCCTGGAGCGC
Kd (µM): 0.0614
--
Binder: R8-D3 template:primer (mixed, primer nt 1-8 RNA, nt 9-11 DNA, 3' ddC) DNA: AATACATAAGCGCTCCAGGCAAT RNA: GCCUGGAGCGC
Kd (µM): 0.0625
--
Binder: R11 template:primer (DNA:RNA, RNA primer) DNA: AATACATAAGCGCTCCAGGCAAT RNA: GCCUGGAGCGC
Kd (µM): 0.0658

As a next step, examine the binder that follows.
Request: Please look up its Kd: D10-R1 template:primer (mixed, primer nt 1-10 DNA, nt 11 3'-deoxy-C (2'-OH)) DNA 1: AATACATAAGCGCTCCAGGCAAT DNA 2: GCCTGGAGCGC
Result: 0.0456
